Biological target: BRD4 BD1 (Homo sapiens)
Experiment: AlphaScreen binding assay, BRD4 Bromodomain 1
pIC50: −log10 of the molar value.
readout.label: pIC50

Would you please look over these solved cases?
INSERT INTO results (compound, readout_label, obs_value) VALUES
  ('CC(=O)N[C@@H]1CCN(C(=O)c2ccc(-c3ccc4c(c3)N(C(=O)OC(C)C)C[C@H](C)N4C(=O)C3CC3)cc2)C1 [Example I-568]', 'pIC50', '6.00 to 7.00'),
  ('CCOC(=O)N1C[C@H](C)N(C(C)=O)c2ccc(-c3ccc(NS(C)(=O)=O)c(C)c3)cc21 [Example I-1173]', 'pIC50', '6.00 to 7.00'),
  ('CC(=O)N1c2ccc(-c3ccc(S(C)(=O)=O)cc3)cc2N(C(=O)c2ccc(CN(C)C)o2)C[C@@H]1C [Example I-984]', 'pIC50', '< 5.00'),
  ('CC(=O)c1ccc(S(=O)(=O)N2C[C@H](C)N(C(C)=O)c3ccccc32)cc1 [Example I-957]', 'pIC50', '< 5.00'),
  ('COC(=O)Nc1ccc2c(c1)N(C(C)=O)[C@@H](C)CN2C(=O)OC(C)C [Example I-202]', 'pIC50', '< 5.00');

Would you mind telling me what pIC50 value was observed for CC(=O)N1c2ccc(-c3cnn(CCO)c3)cc2N(C(=O)Oc2cccnc2)C[C@@H]1C [Example I-1281] ?
6.00 to 7.00

I am curious: what pIC50 value has been reported for CNS(=O)(=O)c1ccc(-c2ccc3c(c2)N(C(=O)C2CC2)C[C@H](C)N3C(C)=O)cc1 [Example I-1119] ?
5.00 to 6.00

Recorded pIC50 for COC(=O)N1c2ccc(-c3cnn(C4CC4)c3)cc2N(C(=O)OC2CCCC2)C[C@@H]1C [Example I-40] , please?
6.00 to 7.00

GET /values?readout=pIC50&item= CC(=O)N1c2ccc(-c3ccc(C(N)=O)cc3)cc2N(C(=O)c2ccco2)C[C@@H]1C [Example I-810]
6.00 to 7.00

Quick check: pIC50 of CC(=O)N1c2ccc(-c3cnn(CC4CCOCC4)c3)cc2N(C(=O)OC(C)C)C[C@@H]1C [Example I-608] ?
6.00 to 7.00

Record request: pIC50 value, item CC(=O)N1c2ccc(-c3ccc(C(=O)N4CC[C@H](N(C)C)C4)cc3)cc2N(C(=O)OC(C)C)C[C@@H]1C [Example I-543]
> 7.00

// query pIC50 value for entry CC(=O)N1c2ccc(-c3ccc(C4(O)COC4)cc3)cc2N(C(=O)c2ccco2)C[C@@H]1C [Example I-415]
6.00 to 7.00

###

Biological target: BRD4 BD2 (Homo sapiens)
Assay: AlphaScreen binding assay, BRD4 Bromodomain 2
Collected IC50 values appear next to each entry.

Sample records with IC50:
INSERT INTO results (smiles_string, readout_label, obs_value) VALUES
  ('COC(=O)N1c2ccc(-c3ccc(S(C)(=O)=O)cc3)cc2N(C(=O)Oc2ccccn2)C[C@@H]1C', 'IC50', '0.05 to 0.5 µM'),
  ('COc1ccc(-c2ccc3c(c2)N(C(=O)C2CCC2)C[C@H](C)N3C(C)=O)cc1N1CCCS1(=O)=O', 'IC50', '0.05 to 0.5 µM'),
  ('COc1ccccc1CC(=O)N1C[C@H](C)N(C(C)=O)c2ccccc21', 'IC50', '> 0.5 µM'),
  ('CC(=O)N1c2ccc(-c3ccc4ncccc4c3)cc2N(C(=O)COc2ccccc2)C[C@@H]1C', 'IC50', '0.05 to 0.5 µM'),
  ('CNC(=O)c1cccc(-c2ccc3c(c2)N(C(=O)c2ccco2)CCN3C(C)=O)c1', 'IC50', '> 0.5 µM');

What value of measured IC50 is listed for CNC(=O)N1c2ncc(-c3cnn(C4CC4)c3)cc2N(C(=O)OC(C)C)C[C@@H]1C ?
0.05 to 0.5 µM

Return reported IC50; argument: CC(C)OC(=O)N1C[C@H](C)N(C(=O)C2CC2)c2ccc(-c3cnn(CC4(CO)COC4)c3)cc21
0.05 to 0.5 µM

Query: IC50; subject: CC(=O)N1c2ccc(-c3cn[nH]c3)cc2N(C(=O)c2ccco2)C[C@@H]1C
< 0.05 µM
